Measured values drawn from the antibiotic and cytotoxicity screens of Wong et al. (2023) for this set.

Test system: S. aureus RN4220
Experiment: growth inhibition call (relative growth <= 0.2)
Run parameters: 50 µM
The whole screen tested about 39,000 compounds, of which about 500 (1.3%) were called active. This excerpt belongs to a sample that is enriched for actives.
Your response should consist of one outcome taken from active, inactive

Task: Hi, do you know how C[C@@H]1CCCCO[C@H](CN(C)C(=O)CCCN(C)C)[C@@H](C)CN([C@@H](C)CO)C(=O)c2cc(NC(=O)Nc3cccc4ccccc34)ccc2O1 came out in this test?
Output: inactive

Task: # lookup: test call for Cc1nnc(SCC2=C(C(=O)O)N3C(=O)[C@@H](N)[C@H]3SC2)s1
Output: inactive

Task: State the result this test recorded for Cc1nnc(SCC2=C(C(=O)O)N3C(=O)[C@@H](NC(=O)Cn4cnnn4)[C@H]3SC2)s1 .
Output: active

Task: Record request — test call for C[C@@H]1CCCCO[C@@H](CN(C)C(=O)C2CCCCC2)[C@H](C)CN([C@@H](C)CO)C(=O)c2cc(NC(=O)Nc3cccc4ccccc34)ccc2O1
Output: inactive

----------
System: S. aureus RN4220
Experiment: growth inhibition call (relative growth <= 0.2)
Run parameters: 50 µM
Screen size: about 39,000 compounds; about 500 (1.3%) were called active. This excerpt belongs to a sample that is enriched for actives.
Please state which outcome applies, choosing from TRUE for active, FALSE for inactive

Task: // return assay outcome for O=C(C[C@H]1CC[C@@H]2[C@H](COC[C@H](O)CN2C(=O)Nc2cccc(Cl)c2)O1)NCc1ccccc1F
Output: FALSE

Task: Recorded test call requested for O=C(C[C@@H]1CC[C@H]2[C@@H](COC[C@H](O)CN2C(=O)Nc2cccc(Cl)c2)O1)NCc1ccccc1F
Output: TRUE

Task: Dear colleague, could you share the recorded outcome for COc1ccc(NC(=O)Nc2cccc3c2O[C@@H](CN(C)S(C)(=O)=O)[C@H](C)CN([C@@H](C)CO)C3=O)cc1 when you have a moment?
Output: FALSE

Task: Please let me know the test result on file for COc1ccc(-n2nc(CCC(=O)N(C)O)cc2-c2ccc(Cl)cc2)cc1 .
Output: FALSE

Task: GET /call?item= COc1ccc(NC(=O)N(C)C[C@@H]2OCCCC[C@@H](C)Oc3ccc(NS(=O)(=O)c4ccccc4)cc3C(=O)N([C@@H](C)CO)C[C@@H]2C)cc1 returns the recorded outcome of this test.
Output: FALSE

Task: What is the recorded call for this molecule in the test? CC(C)[Si](C#CCCc1ccccc1)(O[C@H](c1ccccc1)c1cn(Cc2ccccc2)nn1)C(C)C
Output: FALSE

Task: Outcome? CNC[C@H]1OCCCC[C@@H](C)Oc2ccc(NC(=O)Nc3ccc(C(F)(F)F)cc3)cc2C(=O)N([C@H](C)CO)C[C@H]1C
Output: TRUE

Task: # outcome recorded in this test, key = COc1ccc2c3c([nH]c2c1)[C@H](CO)N(Cc1ccc(cc1)Cl)C[C@]13CCN(CC1)Cc1ccccc1
Output: FALSE

Task: // outcome(item) with item = C[C@H](CO)N1C[C@H](C)[C@@H](CN(C)C(=O)c2ccccc2)OCCCC[C@H](C)Oc2ccc(NC(=O)Nc3ccc4c(c3)OCO4)cc2C1=O
Output: FALSE

Task: For this molecule, state the assay outcome: COc1ccc(S(=O)(=O)N(C)C[C@@H]2Oc3c(NC(=O)NC(C)C)cccc3C(=O)N([C@@H](C)CO)C[C@@H]2C)cc1
Output: FALSE

Task: Name the outcome recorded for O=C(C[C@@H]1CC[C@H]2[C@@H](COC[C@@H](O)CN2C(=O)Nc2cccc(Cl)c2)O1)NCc1ccccc1F in the assay.
Output: FALSE

Task: Hey, what did the test say about CCCCCCCCCCCCC[N+](C)(C)Cc1ccccc1 ?
Output: TRUE

Task: Recorded call for O=C(C[C@@H]1CC[C@@H]2[C@H](COC[C@H](O)CN2C(=O)Nc2cccc(Cl)c2)O1)NCc1ccccc1F ?
Output: FALSE

Task: What did this assay record as the result for O=C(C[C@H]1CC[C@@H]2[C@H](COC[C@@H](O)CN2C(=O)Nc2cccc(Cl)c2)O1)NCc1ccccc1F ?
Output: TRUE

Task: Per the assay record, what outcome was assigned to COc1cccc(NC(=O)N2C[C@H](O)COC[C@H]3O[C@@H](CC(=O)NCc4ccccc4F)CC[C@@H]32)c1 ?
Output: FALSE

Task: Hey, what did the test say about COc1ccc2c3c([nH]c2c1)[C@H](CO)N(Cc1ccc(cc1)Cl)C[C@]13CCN(CCc2ccccc2)CC1 ?
Output: FALSE

Task: Hey, what did the test say about O=C(C[C@H]1CC[C@H]2[C@@H](COC[C@@H](O)CN2C(=O)Nc2cccc(Cl)c2)O1)NCc1ccccc1F ?
Output: FALSE

Task: Record lookup: outcome of this test for CNC[C@@H]1OCCCC[C@H](C)Oc2ccc(NC(=O)Nc3ccc(C(F)(F)F)cc3)cc2C(=O)N([C@H](C)CO)C[C@H]1C ?
Output: TRUE

Task: What did the test return for COc1ccc2c3c([nH]c2c1)[C@H](CO)N(Cc1ccc(cc1)Cl)C[C@]13CN(CCc2ccccc2)C1 ?
Output: TRUE

Task: How did this test come out for COc1ccc2c3c([nH]c2c1)[C@H](CO)N(C[C@]13CN(CCc2ccccc2)C1)C(=O)CN1CCOCC1 ?
Output: FALSE

Task: Could you kindly confirm the outcome this assay logged for CCCCCCCCCCCCC[N+](C)(C)Cc1ccccc1.O.[Cl-] ?
Output: FALSE

Task: Give the logged outcome of this assay for the following molecule: COc1ccc(NC(=O)Nc2ccc3c(c2)C(=O)N([C@H](C)CO)C[C@@H](C)[C@@H](CN(C)Cc2ccc(C(=O)Nc4ccccc4N)cc2)O3)cc1
Output: FALSE

Task: Hi, sorry to bother you, what did the test record for CCCCCCC#C[Si](O[C@H](c1ccccc1)c1cn(Cc2cccc(Cl)c2)nn1)(C(C)C)C(C)C ?
Output: FALSE

Task: Could you check what this test reported for CCCCCCCCCCCCCCCC[N+](C)(C)Cc1ccccc1.[Cl-] ?
Output: FALSE

Task: Recorded test outcome, item Cc1noc(C)c1NC(=O)Nc1cccc2c1O[C@H](CN(C)Cc1ccc(C(=O)Nc3ccccc3N)cc1)[C@@H](C)CN([C@H](C)CO)C2=O
Output: FALSE

Task: Entry COc1ccc(NC(=O)Nc2ccc3c(c2)C(=O)N([C@@H](C)CO)C[C@H](C)[C@@H](CN(C)S(=O)(=O)c2ccc(Cl)cc2)OCCCC[C@H](C)O3)cc1 : call = ?
Output: FALSE

Task: I would be grateful if you could indicate the recorded call for COc1cccc(-c2cnc3c(c2)C(=O)N([C@H](C)CO)C[C@H](C)[C@H](CN(C)S(=O)(=O)c2cn(C)cn2)O3)c1 .
Output: FALSE

Task: Could you please tell me the result logged for CNC[C@@H]1OCCCC[C@H](C)Oc2ccc(NC(=O)Nc3ccc(C(F)(F)F)cc3)cc2C(=O)N([C@H](C)CO)C[C@@H]1C in this assay?
Output: FALSE

Task: Hi team, can someone confirm the assay call for CO[C@H](CN(C)S(=O)(=O)c1ccc(Cl)cc1)[C@@H](C)CN([C@H](C)CO)S(=O)(=O)c1cccc(Cl)c1 ?
Output: FALSE

Task: Query: recorded result category for O=C(O)c1cc(F)c2nc(N3[C@@H]4CC[C@H]3C[C@@H](OCc3c(-c5ccccc5OC(F)(F)F)noc3C3CC3)C4)sc2c1 in this test
Output: TRUE

----------
Tested on: S. aureus RN4220
Experiment: growth inhibition call (relative growth <= 0.2)
Run parameters: 50 µM
In all, about 39,000 compounds went through this assay and about 500 (1.3%) were called active. The entries come from a sample that favours actives as a whole.
Reply using exactly one outcome from 1 = active, -1 = inactive

Task: Kindly provide the recorded test outcome for the following compound: Cc1ccc(C(=O)N(CCCN)[C@@H](c2nc3cc(Cl)ccc3c(=O)n2Cc2ccccc2)C(C)C)cc1
Output: 1

Task: Hello, I am checking results. What call was entered for C[C@@H]1CN([C@H](C)CO)C(=O)c2cc(NC(=O)c3ccncc3)ccc2O[C@@H]1CN(C)Cc1ccc(C(=O)O)cc1 ?
Output: -1

Task: Assay result, entry Cc1noc(C)c1CO — outcome?
Output: -1

Task: Per the records of this test, what outcome belongs to C[C@H]1CN([C@@H](C)CO)C(=O)Cc2cc(NC(=O)CCN3CCOCC3)ccc2O[C@@H]1CN(C)C(=O)Nc1ccccc1 ?
Output: -1

Task: Recorded call for CN(C)CC#Cc1cncc(C(=O)NN)c1 ?
Output: -1

Task: What did the test return for CCOC(=O)[C@H]1C/C=C/C[C@H](C(=O)OCC)C(=O)O[C@H]2[C@@H](OC)O[C@H](CO)[C@@H](OC(=O)Nc3ccc(Br)cc3)[C@@H]2OC1=O ?
Output: -1

Task: Could you check what this test reported for C[C@@H]1CCCCO[C@@H](CN(C)C(=O)Nc2ccc3c(c2)OCO3)[C@@H](C)CN([C@@H](C)CO)C(=O)c2cc(NC(=O)Cc3ccccc3)ccc2O1 ?
Output: -1

Task: Could you check what this test reported for COc1ccc(C)cc1S(=O)(=O)NCCO ?
Output: -1

Task: What classification did CN1CCC(=C2c3ccccc3Sc3ccccc32)CC1.O=C(O)C=CC(=O)O end up with in this test?
Output: -1

Task: Each compound tested received a call. Report the one for COc1ccccc1-c1ccc2c(c1)O[C@@H](CN(C)C(=O)c1cccnc1)[C@@H](C)CN([C@@H](C)CO)S2(=O)=O .
Output: -1

Task: Write down the call the test reported for this compound. Item: CC(C)=CCCC1(C)C=Cc2c(O)c3c(c(CC=C(C)C)c2O1)OC12C(=CCCC1C(C)(C)OC2(CC=C(C)C(=O)O)C(=O)O)C3=O (stereo not drawn)
Output: 1

Task: Which outcome did this test record for the compound Cc1ccc2c(c1)c1nc3ccccc3nc1n2Cc1ccccc1 ?
Output: -1

Task: Field: outcome | Entry: CC(C)=CCc1c2c(c3occ(-c4ccc(O)cc4)c(=O)c3c1O)C=CC(C)(C)O2
Output: -1

Task: How was C[C@H]1N(c2cnn(C)c2)C(=O)COC12CCN(S(C)(=O)=O)CC2 classified in this test?
Output: -1

Task: In this assay, the call recorded for CN1CC2(CCN(C(=O)[C@H]3CCC(=O)N3)CC2)COc2ccccc2S1(=O)=O was what?
Output: -1

Task: How was C[C@H](CO)N1C[C@H](C)[C@@H](CN(C)Cc2ccc3c(c2)OCO3)Oc2c(NS(=O)(=O)c3cn(C)cn3)cccc2C1=O classified in this test?
Output: -1

Task: Query: recorded result category for CS(=O)(=O)O.CSc1ccc2c(c1)C(N1CCN(C)CC1)Cc1ccccc1S2 (stereo not drawn) in this test
Output: 1

Task: # fetch the recorded call for CS(=O)(=O)N1C[C@@H]2OCC[C@@H]2[C@H](C(=O)NCc2cccnc2)C1 here
Output: -1
